TEST SYSTEM: Cbl-b (Homo sapiens (Human), UniProt Q13191)
PROCEDURE SUMMARY: Cbl-b LCK Ub TR-FRET assay (Cbl-b Lck HTRF)
Assay type: biochemical
ASSAY SETUP: ratio C-cbl Lck HTRF IC50 / Cbl-b Lck HTRF IC50
METRIC: fold-selectivity (Cbl-b over C-cbl)

CCc1cc(N2Cc3c(cc(CNC4(C)CCC4)cc3C(F)(F)F)C2=O)cc([C@]2(c3nncn3C)C[C@@H](OC)C2)c1 : 1.4x

Cbl-b (Homo sapiens (Human), UniProt Q13191) data for CO[C@H]1C[C@](c2cc(N[C@H](C)CC#N)cc(N3Cc4c(cc(CNC5(C)CCC5)cc4C(F)(F)F)C3=O)c2)(c2nncn2C)C1 (single isomer, unassigned) ; its fold-selectivity (Cbl-b over C-cbl): 1.5x

Bench note, Cbl-b (Homo sapiens (Human), UniProt Q13191): Cn1cnnc1[C@@H](c1cccc(N2Cc3c(cc(CNC4(C)CCC4)cc3C(F)(F)F)C2=O)c1)C1CC(F)C1 (single isomer, unassigned) [Compound 130] , fold-selectivity (Cbl-b over C-cbl) reads 1.0x

---

TEST SYSTEM: Cbl-b (Homo sapiens (Human))
PROCEDURE SUMMARY: Cbl-b LCK Ub TR-FRET assay (Cbl-b Lck HTRF)
Type: biochemical
ASSAY SETUP: Cbl-b LCK Ub TR-FRET
pIC50: −log10 of the molar value.
METRIC: pIC50

CCOc1cc(N2Cc3c(cc(CNC4(C)CCC4)cc3C(F)(F)F)C2=O)cc([C@]2(c3nncn3C)C[C@H](OC)C2)c1 [Compound 202] : 7.96
Cn1cnnc1C1(c2cccc(N3Cc4c(cc(CNC5(C)CCC5)cc4C(F)(F)F)C3=O)c2)CN(CC(F)(F)F)C1 [Compound 110] : 5.85

(1) Cn1nnnc1[C@@H](c1cccc(N2Cc3c(cc(CNC4(C)CCC4)cc3C(F)(F)F)C2=O)c1)C1COC1 (single isomer, unassigned) [Compound 348]
(2) Cn1cnnc1[C@]1(c2cccc(N3Cc4c(cc(CNC5(C)CCC5)cc4C(F)(F)F)C3=O)c2)C[C@@H](OCC#N)C1 [Compound 281]
Recorded pIC50 values differ for 1 and 2 ; which one is higher? Which one? Tell me its label.
2
(2: 8.17, 1: 6.85)

---

TEST SYSTEM: UniProtKB Q13191
PROCEDURE SUMMARY: Cbl-b LCK Ub TR-FRET assay (Cbl-b Lck HTRF)
Format: biochemical
ASSAY SETUP: Cbl-b LCK Ub TR-FRET
pIC50: −log10 of the molar value.
METRIC: pIC50

Check out these entries, answers already filled in.
CO[C@H]1C[C@](c2cc(NC(C)C)cc(N3Cc4c(cc(CNC5(C)CCC5)cc4C(F)(F)F)C3=O)c2)(c2nncn2C)C1 : 8.03
Cn1cnnc1[C@]1(c2cccc(N3Cc4c(cc(CNC5(C)CCC5)cc4C(F)(F)F)C3=O)c2)C[C@H](CF)C1 : 8.14
Cn1cnnc1C1(c2cccc(N3Cc4c(cc(CNC5(C)CCC5)cc4C(F)F)C3=O)c2)CC2(COC2)C1 : 7.43
Cn1cnnc1[C@H](OC1CCC1)c1cccc(N2Cc3c(cc(CNC4(C)CCC4)cc3C(F)(F)F)C2=O)c1 : 5.92
Cn1cnnc1[C@](O)(c1cccc(N2Cc3c(cc(CNC4(C)CCC4)cc3C(F)(F)F)C2=O)c1)C(F)(F)F : 5.12

(I) Cn1cnnc1C1(c2cccc(N3Cc4c(cc(C(N)=O)cc4C(F)(F)F)C3=O)c2)CCC1
(II) CS[C@H]1C[C@@](c2cccc(N3Cc4c(cc(CNC5(C)CCC5)cc4C(F)(F)F)C3=O)c2)(c2nncn2C)C1
(III) CC(C)[C@H]1CN(C)CCN1Cc1cc(Cl)c2c(c1)C(=O)N(c1cccc(C3(c4nncn4C)CC4(COC4)C3)c1)C2 (single isomer, unassigned)
(IV) CO[C@H]1C[C@@](c2cc(OC(C)C)cc(N3Cc4c(cc(CNC5(C)CCC5)cc4C(F)(F)F)C3=O)c2)(c2nncn2C)C1
Sort low-to-high on pIC50, please. Give your ranking as a list of the labels in the requested order.
I, IV, III, II
(I: 6.72, IV: 7.47, III: 7.89, II: 8.32)

(A) Cn1cnnc1[C@@H](c1cccc(N2Cc3c(cc(CNC4(C)CCC4)cc3C(F)(F)F)C2=O)c1)C1CCCC1
(B) Cn1cnnc1[C@H](c1cccc(N2Cc3c(cc(CNC4(C)CCC4)cc3C(F)(F)F)C2=O)c1)C1CCC1 (single isomer, unassigned)
(C) Cn1cnnc1[C@H](c1cccc(N2Cc3c(cc(CNC4(C)CCC4)cc3C(F)(F)F)C2=O)c1)C1CCCCC1 (single isomer, unassigned)
(D) Cn1cnnc1[C@@H](C[C@H]1CCOC1)c1cccc(N2Cc3c(cc(CNC4(C)CCC4)cc3C(F)(F)F)C2=O)c1
(E) CO[C@H]1C[C@@](c2cc(OC3CCCC3)cc(N3Cc4c(cc(CNC5(C)CCC5)cc4C(F)(F)F)C3=O)c2)(c2nncn2C)C1
Sort low-to-high on pIC50, please. List each label, following the requested order.
D, C, E, A, B

(a) Cn1cnnc1[C@]1(c2cccc(N3Cc4c(cc(CNC5(C)CCC5)cc4C(F)(F)F)C3=O)c2)C[C@@H](CC#N)C1
(b) Cn1cnnc1[C@@H](c1cccc(N2Cc3c(cc(CNC4(C)CCC4)cc3C(F)(F)F)C2=O)c1)[C@H]1C[C@H](C#N)C1 (single isomer, unassigned)
Which value of pIC50 is greater, the one for a or the one for b ? Identify your pick by its label.
a

---

TEST SYSTEM: Cbl-b (Homo sapiens (Human), UniProt Q13191)
PROCEDURE SUMMARY: Cbl-b LCK Ub TR-FRET assay (Cbl-b Lck HTRF)
Assay type: biochemical
ASSAY SETUP: Cbl-b LCK Ub TR-FRET, Example 121
pIC50: −log10 of the molar value.
METRIC: pIC50

(a) Cn1cnnc1C(c1cccc(N2Cc3c(cc(CNC4(C)CCC4)cc3C(F)(F)F)C2=O)c1)C1(F)CSC1 (stereo not shown) [Compound 462]
(b) CO[C@H]1C[C@](c2cccc(N3Cc4c(cc(CNCC(C)(C)C)cc4C(F)(F)F)C3=O)c2)(c2nncn2C)C1 [Compound 481]
Select the item whose pIC50 value is smaller, choosing between a and b . Please indicate the selected item by its label.
a
(a: 7.89, b: 8.21)

---

TEST SYSTEM: Human Cbl-b (residues 40-426) (Homo sapiens (Human), UniProt Q13191)
Sequence (Q13191 40-426): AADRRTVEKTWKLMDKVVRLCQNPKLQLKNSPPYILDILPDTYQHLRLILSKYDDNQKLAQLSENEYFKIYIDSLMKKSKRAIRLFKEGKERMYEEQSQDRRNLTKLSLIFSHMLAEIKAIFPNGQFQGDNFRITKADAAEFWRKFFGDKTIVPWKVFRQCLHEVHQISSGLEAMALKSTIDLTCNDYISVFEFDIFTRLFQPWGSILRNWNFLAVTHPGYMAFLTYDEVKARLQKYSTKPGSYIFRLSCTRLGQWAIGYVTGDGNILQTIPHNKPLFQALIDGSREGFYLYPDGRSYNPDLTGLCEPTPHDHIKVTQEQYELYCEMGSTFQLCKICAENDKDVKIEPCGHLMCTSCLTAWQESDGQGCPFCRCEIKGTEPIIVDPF
PROCEDURE SUMMARY: Cbl-b SPR assay
Assay type: binding
ASSAY SETUP: C-cbl SPR Kd vs Cbl-b SPR Kd
METRIC: Fold of selectivity (×)

(1) Cn1cnnc1[C@@](O)(c1cccc(N2Cc3c(cc(CNC4(C)CCC4)cc3C(F)(F)F)C2=O)c1)C1CCC1 (single isomer, unassigned)
(2) CC[C@H](NC1(C)CCC1)c1cc2c(c(C(F)(F)F)c1)CN(c1cccc([C@H](c3nncn3C)C3COC3)c1)C2=O
Form: Entry with minimum Fold of selectivity (choose one): 1 / 2 Kindly give the label for the entry you pick.
2
(2: 4.0 ×, 1: 13 ×)

(A) Cn1cnnc1[C@@H](c1cccc(N2Cc3c(cc(CNC4(C)CCC4)cc3C(F)(F)F)C2=O)c1)C1CC(OC(F)F)C1 (single isomer, unassigned) [Compound 388]
(B) CO[C@H]1C[C@](c2cccc(N3Cc4c(cc(CNCC5(CF)CCC5)cc4C(F)(F)F)C3=O)c2)(c2nncn2C)C1
Smaller Fold of selectivity value? Options are A and B Pick one and reply with its label.
A

---

Reported values: Kd for Human Cbl-b (residues 40-426) (Homo sapiens (Human), UniProt Q13191), one per item.
METRIC: Kd (nM)

Cn1cnnc1[C@H](c1cccc(N2Cc3c(cc(CNC4(C)CCC4)cc3C(F)(F)F)C2=O)c1)C1CC(F)C1 (single isomer, unassigned) : 230
CO[C@H]1C[C@](c2cccc(N3Cc4c(cc(CNCC5(F)CC5)cc4C(F)(F)F)C3=O)c2)(c2nncn2C)C1 : 8.2

(I) CC(=O)[C@H]1C[C@@](c2cccc(N3Cc4c(cc(CNC5(C)CCC5)cc4C(F)(F)F)C3=O)c2)(c2nncn2C)C1
(II) CC[C@@](F)(c1cccc(N2Cc3c(cc(CNC4(C)CCC4)cc3C(F)(F)F)C2=O)c1)c1nncn1C (single isomer, unassigned)
When their Kd values are compared, which is larger, I or II ? Your choice should be expressed through its label.
I

---

TEST SYSTEM: Human Cbl-b (residues 40-426) (Homo sapiens (Human), UniProt Q13191)
PROCEDURE SUMMARY: Cbl-b SPR assay
Assay type: binding
ASSAY SETUP: C-cbl SPR Kd vs Cbl-b SPR Kd
METRIC: Fold of selectivity (×)

Cn1cnnc1[C@H](c1cccc(N2Cc3c(cc(CNC4(C)CCC4)cc3C(F)(F)F)C2=O)c1)C1CC1 (single isomer, unassigned) : 6.4
CO[C@]1(C)C[C@@](c2cccc(N3Cc4c(cc(CNC5(C)CCC5)cc4C(F)(F)F)C3=O)c2)(c2nncn2C)C1 : 5.5
Cn1cnnc1[C@@H](c1cccc(N2Cc3c(cc(CNC4(C)CCC4)cc3C(F)(F)F)C2=O)c1)C1COC1 (single isomer, unassigned) : 7.0
